Readings of Kd for the listed compounds
# system-under-test: Mycobacterial ClpC1 FL (Mycobacterium tuberculosis)
# Construct: N-terminal domain (NTD) and the full-length protein (FL) by surface plasmon resonance (SPR)
# Sequence (P9WPC9 whole entry, the tested form may be a part): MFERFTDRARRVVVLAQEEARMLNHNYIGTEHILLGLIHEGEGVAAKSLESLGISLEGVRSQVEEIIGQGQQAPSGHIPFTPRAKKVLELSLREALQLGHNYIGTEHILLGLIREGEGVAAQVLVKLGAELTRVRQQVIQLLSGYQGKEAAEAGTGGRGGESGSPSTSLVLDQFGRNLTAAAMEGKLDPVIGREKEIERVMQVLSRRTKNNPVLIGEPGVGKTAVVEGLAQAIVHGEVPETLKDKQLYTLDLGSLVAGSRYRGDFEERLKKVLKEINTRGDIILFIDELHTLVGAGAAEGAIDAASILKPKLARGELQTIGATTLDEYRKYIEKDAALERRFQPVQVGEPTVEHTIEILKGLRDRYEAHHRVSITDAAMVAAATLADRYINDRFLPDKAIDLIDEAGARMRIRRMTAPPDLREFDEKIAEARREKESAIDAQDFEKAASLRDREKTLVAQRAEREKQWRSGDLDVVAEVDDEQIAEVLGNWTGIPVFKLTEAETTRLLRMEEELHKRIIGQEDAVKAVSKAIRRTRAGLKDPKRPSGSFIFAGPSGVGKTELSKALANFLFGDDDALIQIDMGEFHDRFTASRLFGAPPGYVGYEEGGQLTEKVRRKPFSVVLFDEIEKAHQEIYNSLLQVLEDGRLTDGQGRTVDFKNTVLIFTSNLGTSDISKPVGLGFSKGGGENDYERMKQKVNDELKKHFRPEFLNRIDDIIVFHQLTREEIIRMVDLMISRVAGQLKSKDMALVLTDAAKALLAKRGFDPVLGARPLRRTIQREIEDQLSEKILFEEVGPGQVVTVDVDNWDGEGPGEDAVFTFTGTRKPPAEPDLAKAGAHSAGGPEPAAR
# test-protocol: SPR binding affinity to ClpC1 full-length protein (FL)
# measurement-parameters: ClpC1 full-length protein; KD=kd/ka; Table 1; read-out: SPR KD FL
# Method: Analysis of binding affinity to Mycobacterial ClpC1-NTD and FL by SPR. […] Kinetic rate constants (ka and kd) were determined by fitting the double-reference data globally to the 1:1 Langmuir model embedded in the Biacore T200 evaluation software (v3.0). KD values were then calculated from the two rate constants (KD=kd/ka). […]
Unit nM implied. Number only.

Request body: readout Kd, system Mycobacterial ClpC1 FL (Mycobacterium tuberculosis), query C/C=C/C[C@@H]1NC(=O)[C@H](CC(C)C)N2C(=O)[C@H](CC(C)[C@H]2OC(C)=O)N(C)C(=O)[C@H](C)NC(=O)[C@H](Cc2ccc(OC(C)=O)c([N+](=O)[O-])c2)NC(=O)[C@H](CC(C)C)N(C)C(=O)[C@H](Cc2cn(C(C)(C)[C@H]3CO3)c3ccccc23)NC1=O (some centres unmarked) [Compound 26] . Return the value.
16

Query compound follows.
Request body: readout Kd, system Mycobacterial ClpC1 FL (Mycobacterium tuberculosis), query C/C=C/C[C@@H]1NC(=O)[C@H](CC(C)C)N2C=C(C)C[C@@H](C2=O)N(C)C(=O)[C@H](C)NC(=O)[C@H](Cc2ccc3c(c2)N=C(C)CC(C)(C)O3)NC(=O)[C@H](CC(C)C)N(C)C(=O)[C@H](Cc2cn(C(C)(C)[C@H](O)CCl)c3ccccc23)NC1=O [Compound 20] . Return the value.
234
